tgt: IKK2 (IKKβ), rhIKK2 homodimer (Homo sapiens, UniProt O14920)
Construct: made in house; host or cells: insect cells (baculovirus; SF9)
Sequence (O14920 1-756): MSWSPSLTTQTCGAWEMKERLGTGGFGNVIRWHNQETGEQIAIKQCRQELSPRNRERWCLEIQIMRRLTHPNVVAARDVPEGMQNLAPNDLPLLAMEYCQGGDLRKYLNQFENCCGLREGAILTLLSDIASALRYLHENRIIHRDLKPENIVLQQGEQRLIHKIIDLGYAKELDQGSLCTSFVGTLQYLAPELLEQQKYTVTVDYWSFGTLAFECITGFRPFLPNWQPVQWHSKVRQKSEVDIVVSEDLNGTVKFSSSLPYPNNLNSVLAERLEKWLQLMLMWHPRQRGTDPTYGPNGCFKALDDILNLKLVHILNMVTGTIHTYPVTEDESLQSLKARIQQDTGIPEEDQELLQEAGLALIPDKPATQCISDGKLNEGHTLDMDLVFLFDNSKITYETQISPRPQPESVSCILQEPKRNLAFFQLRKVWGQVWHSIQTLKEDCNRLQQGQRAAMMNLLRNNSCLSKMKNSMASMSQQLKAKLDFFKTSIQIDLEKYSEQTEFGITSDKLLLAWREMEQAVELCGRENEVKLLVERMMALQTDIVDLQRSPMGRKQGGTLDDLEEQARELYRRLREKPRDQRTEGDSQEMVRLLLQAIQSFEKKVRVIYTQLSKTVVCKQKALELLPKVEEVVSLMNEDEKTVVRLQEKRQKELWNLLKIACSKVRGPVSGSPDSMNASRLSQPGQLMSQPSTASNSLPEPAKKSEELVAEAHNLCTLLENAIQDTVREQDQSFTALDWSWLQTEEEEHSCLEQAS
assay_notes: IKKβ (IKK2) Resin Enzyme Assay
Type: biochemical
condition: Table 2; values given as bins; read-out: IKK2 Resin IC 50
pIC50: −log10 of the molar value.
measure_name: pIC50

Recorded pIC50, per entry:
                                        smi    meas_value
0  CS(=O)(=O)c1ccc(-n2nc(C(N)=O)c3ccc4ccc(NC(=O)c5ccccc5C(F)(F)F)cc4c32)cc1  5.00 to 6.00
1  CS(=O)(=O)c1ccc(-n2nc(C(N)=O)c3ccc4ccc(NC(=O)c5cccnc5Cl)cc4c32)cc1        ≥ 6.00
2  CS(=O)(=O)c1ccc(-n2nc(C(N)=O)c3ccc4ccc(NC(=O)c5cccc(Cl)c5Cl)cc4c32)cc1        ≥ 6.00
3  CS(=O)(=O)c1ccc(-n2nc(C(N)=O)c3ccc4ccc(NC(=O)c5ccccc5Cl)cc4c32)cc1        ≥ 6.00
4  CS(=O)(=O)c1ccc(-n2nc(C(N)=O)c3ccc4ccc(NC(=O)c5ccccc5F)cc4c32)cc1  5.00 to 6.00

Now for another entry.
Ask: Item under review: "Cc1ccccc1C(=O)Nc1ccc2ccc3c(C(N)=O)nn(-c4ccc(S(C)(=O)=O)cc4)c3c2c1" . Reported pIC50?
Reply: ≥ 6.00

The origin of these recorded values is patent US6849653B2.
